Biological target: T1, human PD-L1 on cells (CHO cells that stably expressed human PD-L1; MDA-MB-231 cells) (human, UniProt Q9NZQ7 19-290)
T1 construct: whole, on cells; Stably expressed on CHO cells; also called CHO cells expressing human PD-L1
T1 sequence (Q9NZQ7 19-290): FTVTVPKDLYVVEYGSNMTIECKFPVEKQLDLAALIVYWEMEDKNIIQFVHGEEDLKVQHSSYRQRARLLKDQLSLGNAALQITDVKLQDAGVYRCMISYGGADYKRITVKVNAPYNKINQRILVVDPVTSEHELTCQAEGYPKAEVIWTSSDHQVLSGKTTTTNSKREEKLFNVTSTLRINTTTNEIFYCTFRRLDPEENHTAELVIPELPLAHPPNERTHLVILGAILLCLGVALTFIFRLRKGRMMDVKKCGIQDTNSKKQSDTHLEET
Assay: flow cytometry competition: biotin-labelled human PD-1-Fc at a subsaturated concentration on CHO cells stably expressing human PD-L1, antibody titrated, streptavidin R-PE detection
measuredEndpoint: IC50 (read off the curve)

Report IC50 (read off the curve) for PD-L1 antibody YN-039 (antibody, human IgG1, lambda, V domains shown, full-length IgG1,lambda) VH: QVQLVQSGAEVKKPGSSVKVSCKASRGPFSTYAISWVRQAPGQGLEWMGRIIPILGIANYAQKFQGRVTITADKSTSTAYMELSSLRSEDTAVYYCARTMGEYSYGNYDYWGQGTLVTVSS VL: QSALTQPASVSGSPGQSITISCTGTVSDVGGYNEVSWYQQHPGKAPKLMIYENSIRPSGVSHRFSGSKSGNTASLTISGLQAEDEADYYCQSYDSSLSGTVFGGGTKLTVLG ~3 nM

Report IC50 (read off the curve) for PD-L1 antibody YN-037 (antibody, human IgG1, lambda, V domains shown, full-length IgG1,lambda) VH: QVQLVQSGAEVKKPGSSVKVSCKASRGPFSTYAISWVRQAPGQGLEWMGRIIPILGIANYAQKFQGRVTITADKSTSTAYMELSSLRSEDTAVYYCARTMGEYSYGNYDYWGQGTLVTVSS VL: QSALTQPASVSGSPGQSITISCTGTSSSVGGYREVSWYQQHPGKAPKLMIYENSIRPSGVSHRFSGSKSGNTASLTISGLQAEDEADYYCQSYDSSLSGTVFGGGTKLTVLG ~3 nM

Report IC50 (read off the curve) for anti-PD-L1 fully human antibody YN-003 (antibody, human IgG1, lambda, V domains shown, Germline version of YN-002; IgG1,lambda) VH: QVQLVQSGAEVKKPGSSVKVSCKASGGTFSSYAISWVRQAPGQGLEWMGRIIPILGIANYAQKFQGRVTITADKSTSTAYMELSSLRSEDTAVYYCARTMDGYSYGNFDYWGQGTLVTVSS VL: QSALTQPASVSGSPGQSITISCTGTSSDVGGYNYVSWYQQHPGKAPKLMIYGNSNRPSGVSNRFSGSKSGNTASLTISGLQAEDEADYYCQSYDSSLSGSVFGGGTKLTVLG ~0.2 µg/mL

Report IC50 (read off the curve) for PD-L1 antibody YN-038 (antibody, human IgG1, lambda, V domains shown, full-length IgG1,lambda) VH: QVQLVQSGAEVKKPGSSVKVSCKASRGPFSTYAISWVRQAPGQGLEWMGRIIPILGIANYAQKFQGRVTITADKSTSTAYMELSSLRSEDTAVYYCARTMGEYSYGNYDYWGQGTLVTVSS VL: QSALTQPASVSGSPGQSITISCTGTRSDVGGYNEVSWYQQHPGKAPKLMIYENSIRPSGVSHRFSGSKSGNTASLTISGLQAEDEADYYCQSYDSSLSGTVFGGGTKLTVLG ~3 nM

Report IC50 (read off the curve) for anti-PD-L1 fully human antibody YN-002 (antibody, human IgG1, lambda, V domains shown, Intact IgG1,lambda antibody of phage antibody 1B10, expressed in 293F cells) VH: QVQLVQSGAEVRKPGSSVKVSCKASGGTFSSYAISWVRQAPGQGLEWMGRIIPILGIANYAQKFQGRVTITADKSTSTAYMELSSLRSEDTAVYYCARTMDGYSYGNFDYWGQGTLVTVSS VL: QSALTQPASVSGSPGQSITISCTGTSSDVGGYNYVSWYQQHPGKAPKLLIYGNSNRPSGVPDRFSGSKSGTSASLAITGLQAEDEADYYCQSYDSSLSGSVFGGGTKLTVLG ~1 µg/mL

Report IC50 (read off the curve) for PD-L1 antibody YN-035 (antibody, human IgG1, lambda, V domains shown, full-length IgG1,lambda) VH: QVQLVQSGAEVKKPGSSVKVSCKASRGPFSTYAISWVRQAPGQGLEWMGRIIPILGIANYAQKFQGRVTITADKSTSTAYMELSSLRSEDTAVYYCARTMEGYGFGNFDYWGQGTLVTVSS VL: QSALTQPASVSGSPGQSITISCTGTVSEVGGYNEVSWYQQHPGKAPKLMIYGNSNRPSGVSNRFSGSKSGNTASLTISGLQAEDEADYYCQSYDSSLSGTVFGGGTKLTVLG ~3 nM

Where do these numbers come from? They come from patent US20210261677A1.
